Experiment: Metabolic stability of the compound in human liver microsomes assessed as half life at 1 uM in presence of NADPH by LC-MS analysis
Format: ADME, Microsome
quantity-kind: half-life at 1 µM

| test-smiles | result |
| --- | --- |
| C#CCn1c(=O)c2c(nc(CCc3cccc(OC)c3)n2C)n(CCCCP(=O)(O)O)c1=O | > 16 h |

Next, consider the following compound.
stdin: Fill blank: measured half-life at 1 µM of the compound "C#CCn1c(=O)c2[nH]c(CCc3cccc(OC)c3)nc2n(CCCCP(=O)(O)O)c1=O" is ____.
stdout: > 4.5 h

* * *

Biological target: Mas-related G-protein coupled receptor member X1 (Homo sapiens)
Sequence (Q96LB2 whole entry): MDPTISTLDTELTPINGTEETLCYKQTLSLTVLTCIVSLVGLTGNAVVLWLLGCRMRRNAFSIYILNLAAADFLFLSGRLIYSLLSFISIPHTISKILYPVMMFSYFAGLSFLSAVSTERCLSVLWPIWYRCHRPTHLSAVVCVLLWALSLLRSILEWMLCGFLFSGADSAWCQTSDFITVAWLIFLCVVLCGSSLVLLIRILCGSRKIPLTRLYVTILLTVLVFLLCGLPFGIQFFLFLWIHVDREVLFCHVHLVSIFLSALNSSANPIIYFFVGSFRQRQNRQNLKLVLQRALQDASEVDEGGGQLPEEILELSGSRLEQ
Assay: Agonist activity at MRGPRX1 (unknown origin) by beta-arrestin recruitment assay
quantity-kind: EC50

stdin: Fill blank: measured EC50 of the compound "C#CCn1c(=O)c2c(nc(/C=C/c3cccc(OC)c3)n2C)n(CCCOP(=O)(O)O)c1=O" is ____.
stdout: > 10 µM

* * *

Molecular target: G-protein coupled receptor 143 (Homo sapiens)
Sequence (P51810 whole entry): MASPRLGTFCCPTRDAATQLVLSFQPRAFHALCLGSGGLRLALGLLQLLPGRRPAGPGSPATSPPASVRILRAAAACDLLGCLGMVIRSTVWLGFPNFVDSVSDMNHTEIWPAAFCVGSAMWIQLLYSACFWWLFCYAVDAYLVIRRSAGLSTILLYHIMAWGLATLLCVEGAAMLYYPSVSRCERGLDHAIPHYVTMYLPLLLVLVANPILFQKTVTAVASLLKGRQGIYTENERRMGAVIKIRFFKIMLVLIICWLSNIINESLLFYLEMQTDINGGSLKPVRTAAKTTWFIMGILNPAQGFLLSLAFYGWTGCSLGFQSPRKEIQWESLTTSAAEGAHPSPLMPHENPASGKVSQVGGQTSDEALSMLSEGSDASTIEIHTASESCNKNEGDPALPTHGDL
Test: Agonist activity at GPR143 (unknown origin) by beta-arrestin recruitment assay
quantity-kind: EC50

stdin: Fill blank: measured EC50 of the compound "C#CCn1c(=O)c2c(nc(/C=C/c3cccc(OC)c3)n2C)n(CCCOP(=O)(O)O)c1=O" is ____.
stdout: > 10 µM
